Hello, the source for this data is patent US20050037062A1, in case you need it.

assay: Solubility of compound (Ic) in lipids, surfactants and pharmaceutical cosolvents; type: physicochemical; details: organic solvent or mixture; in Ethanol; read-out: solubility
MEASUREMENT_TYPE: solubility (µg/mL)
The reply should be a number in µg/mL, with the unit left off.

Note to self: solubility recorded for `CS(=O)(=O)C(=C1CN(C(c2ccc(Cl)cc2)c2ccc(Cl)cc2)C1)c1cc(F)cc(F)c1` was 5800

----------
experiment: Solubility of compound (Ic) in lipids, surfactants and pharmaceutical cosolvents; assay type: physicochemical; details: aqueous with cosolvent or surfactant or cyclodextrin; in Tween 80 (POE monooleate); read-out: solubility
MEASUREMENT_TYPE: solubility (mg/mL)
The reply should be a number in mg/mL, with the unit left off.

Note to self: solubility recorded for `CS(=O)(=O)C(=C1CN(C(c2ccc(Cl)cc2)c2ccc(Cl)cc2)C1)c1cc(F)cc(F)c1` was 50.6
